# TARGET SYSTEM: T1, Cyno GDF15 Fc (cyno, UniProt G7PWZ3 193-308, limits assumed)
# T1 construct: also called cyno GDF15-Fc fusion; not shown: Fc part
# T1 sequence: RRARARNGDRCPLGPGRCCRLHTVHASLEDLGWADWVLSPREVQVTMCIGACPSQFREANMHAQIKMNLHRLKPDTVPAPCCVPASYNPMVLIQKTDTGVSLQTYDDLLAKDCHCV
# EXPERIMENTAL DETAILS: BLI Octet; antigen on sensor, 100 nM Fab (monovalent)
MEASUREMENT LABEL: Kd (nM)
Return type: number; implicit unit nM.

# BINDER, Kd [nM]
rows = [
    ("GDF15 antibody agent Clone K, Fab (Fab, V domains shown, Fab; CH1 and CL of the Fab not specified; also called Fab of Clone K) VH: QVQLVQSGAEVKKPGASVKVSCKASGYTFTNEGISWVRQAPGQGLEWMGWISAYTADTFYAQKLQGRVTMTTDTSTSTAYMELRSLRSDDTAVYYCARTRHDTSGLRFDYWGQGTLVTVSS VL: DIQMTQSPSSVSASVGDRVTITCRASQGIDSWLAWYQQKPGKAPKLLIYAASSLQSGVPSRFSGSGSGTDFTLTISSLQPEDFATYYCQQVHSFPITFGGGTKVEIK", 2.4),
    ("GDF15 antibody agent Clone L, Fab (Fab, V domains shown, Fab; CH1 and CL of the Fab not specified; also called Fab of Clone L) VH: QVQLVQSGAEVKKPGASVKVSCKASGYTFASYDIIWVRQAPGQGLEWMGWISALSGDTVYAQKLQGRVTMTTDTSTSTAYMELRSLRSDDTAVYYCARTRHDTSGIRFDYWGQGTLVTVSS VL: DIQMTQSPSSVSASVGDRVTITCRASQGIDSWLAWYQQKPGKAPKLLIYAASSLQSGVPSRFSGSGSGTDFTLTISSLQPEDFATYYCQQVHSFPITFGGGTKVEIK", 1.56),
]

Now for a further binder.
*Q* Quick check: Kd of GDF15 antibody agent Clone E, Fab (Fab, V domains shown, Fab; CH1 and CL of the Fab not specified; also called Fab of Clone E) VH: QVQLVQSGAEVKKPGASVKVSCKASGYTFTSYGINWVRQAPGQGLEWMGWITAYSGDTNYAQKLQGRVTMTTDTSTSTAYMELRSLRSDDTAVYYCARGPGQYADVDVWGQGTMVTVSS VL: DIQMTQSPSSVSASVGDRVTITCRASQGISSWLAWYQQKPGKAPKLLIYAASSLQSGVPSRFSGSGSGTDFTLTISSLQPEDFATYYCQQANSFPITFGGGTKVEIK ?
*A* 0.413
